Property: Delta MST; scope: individual compounds
# Tested on: Mus musculus
# Experiment: Mean survival time was determined against Plasmodium berghei treated mice (Mus musculus) after (subcutaneously) administration of 20 mg/kg
# Assay type: functional
# Parameters: unit not given beside the values
# Cond: route subcutaneous
Reported property: Delta MST

{"Cpd smiles": "N=C(Nc1ccc(Cl)cc1)Nc1nc(NCCCN2CCCCCC2)nc(C(Cl)(Cl)Cl)n1", "Reported property": "Delta MST", "Value measured": 0.7}
{"Cpd smiles": "N=C(Nc1ccc(Cl)cc1)Nc1nc(NCCCCN2CCCC2)nc(C(Cl)(Cl)Cl)n1", "Reported property": "Delta MST", "Value measured": 0.2}
{"Cpd smiles": "N=C(Nc1ccc(Cl)cc1)Nc1nc(NCCCCCN2CCCC2)nc(C(Cl)(Cl)Cl)n1", "Reported property": "Delta MST", "Value measured": 0.6}
{"Cpd smiles": "N=C(Nc1ccc(Cl)cc1)Nc1nc(NCCCN2CCCCC2)nc(C(Cl)(Cl)Cl)n1", "Reported property": "Delta MST", "Value measured": 0.3}
